tested on: 817829-284-R-J1-PDC complex spheroids, viability; assay: Anticancer human tumor 817829-284-R-J1-PDC patient-derived colon adenocarcinoma cell line growth inhibition [GQUAD]; conditions: second compound 1 µM; first compound 1 µM; stronger effect = lower value
Measured viability, T/C by item
Reply numerically in %, unit not repeated.

Consider the worked cases shown below.
CC1COCCN1c1cc(-c2ccnn2C)c2ccnc(-c3ccn[nH]3)c2n1 (centres undefined) + CN(C)c1ccc(Nc2c3ccc(NC(=O)CCN4CCCC4)cc3nc3cc(NC(=O)CCN4CCCC4)ccc23)cc1	8.05
COc1cccc2c1C(=O)c1c(O)c3c(c(O)c1C2=O)CC(O)(C(=O)CO)CC3OC1CC(N)C(O)C(C)O1 (centres undefined) + Cc1[nH]c2ccc(F)cc2c1-c1nc2c3cccnc3c3ncccc3c2[nH]1	13.7
COc1ccc([C@@H](O)c2cc(-c3ncnc4cc(N5CCOCC5)ccc34)c(F)cc2Cl)nn1 + Cc1[nH]c2ccc(F)cc2c1-c1nc2c3cccnc3c3ncccc3c2[nH]1	90

Now look at this entry.
Report measured viability, T/C on 817829-284-R-J1-PDC complex spheroids, viability; entry: O=c1[nH]cc(F)c(=O)[nH]1 + Cc1cnc(CNC(=O)c2c(=O)c3ccc(N4CCCN(C)CC4)nc3n3c2sc2ccccc23)cn1
24.8

====

Measured viability, T/C, listed per entry for reference.
system: 817829-284-R-J1-PDC complex spheroids, viability; experiment: Anticancer human tumor 817829-284-R-J1-PDC cell line growth inhibition [GQUAD]; conditions: second compound 0.0316 µM; first compound 0.0316 µM; stronger effect = lower value;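 also: spheroids exposed to agents for 7 days before readout; percent viability relative to DMSO vehicle control taken as 100%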
// note: answer is a bare numeric in %

Could you please provide reported viability, T/C for COc1cc(C2c3cc4c(cc3C(OC3OC5COC(C)OC5C(O)C3O)C3COC(=O)C23)OCO4)cc(OC)c1O (stereo not given) + CN(C)c1ccc(Nc2c3ccc(NC(=O)CCN4CCCC4)cc3nc3cc(NC(=O)CCN4CCCC4)ccc23)cc1 ? Thanks!
103

====

tested on: 817829-284-R-J1-PDC complex spheroids, viability; test: Anticancer human tumor 817829-284-R-J1-PDC cell line growth inhibition [GQUAD]; conditions: second compound 10 µM; first compound 0.0999 µM; stronger effect = lower value;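 also: spheroids exposed to agents for 7 days before readout; percent viability relative to DMSO vehicle control taken as 100%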
Flag rule - viability, T/C less than 2% flags Y; the remaining entries get N.

# example entries with known answers
CC[C@@]1(O)C(=O)OCc2c1cc1n(c2=O)Cc2cc3c(CN(C)C)c(O)ccc3nc2-1 + CN(C)c1ccc(Nc2c3ccc(NC(=O)CCN4CCCC4)cc3nc3cc(NC(=O)CCN4CCCC4)ccc23)cc1	N
CCc1c2c(nc3ccc(O)cc13)-c1cc3c(c(=O)n1C2)COC(=O)[C@]3(O)CC + Cc1[nH]c2ccc(F)cc2c1-c1nc2c3cccnc3c3ncccc3c2[nH]1	N
Cn1ncnc1[C@H]1c2n[nH]c(=O)c3cc(F)cc(c23)N[C@@H]1c1ccc(F)cc1 + Cc1cnc(CNC(=O)c2c(=O)c3ccc(N4CCCN(C)CC4)nc3n3c2sc2ccccc23)cn1	Y
Cn1ncnc1[C@H]1c2n[nH]c(=O)c3cc(F)cc(c23)N[C@@H]1c1ccc(F)cc1 + CN(C)c1ccc(Nc2c3ccc(NC(=O)CCN4CCCC4)cc3nc3cc(NC(=O)CCN4CCCC4)ccc23)cc1	N
CCc1c2c(nc3ccc(O)cc13)-c1cc3c(c(=O)n1C2)COC(=O)[C@]3(O)CC + CN(C)c1ccc(Nc2c3ccc(NC(=O)CCN4CCCC4)cc3nc3cc(NC(=O)CCN4CCCC4)ccc23)cc1	N
Cn1ncnc1[C@H]1c2n[nH]c(=O)c3cc(F)cc(c23)N[C@@H]1c1ccc(F)cc1 + Cc1[nH]c2ccc(F)cc2c1-c1nc2c3cccnc3c3ncccc3c2[nH]1	N
CC[C@@]1(O)C(=O)OCc2c1cc1n(c2=O)Cc2cc3c(CN(C)C)c(O)ccc3nc2-1 + Cc1cnc(CNC(=O)c2c(=O)c3ccc(N4CCCN(C)CC4)nc3n3c2sc2ccccc23)cn1	Y
CC[C@@]1(O)C(=O)OCc2c1cc1n(c2=O)Cc2cc3c(CN(C)C)c(O)ccc3nc2-1 + Cc1[nH]c2ccc(F)cc2c1-c1nc2c3cccnc3c3ncccc3c2[nH]1	N
Cc1[nH]c2ccccc2c1CCNCc1ccc(/C=C/C(=O)NO)cc1 + Cc1cnc(CNC(=O)c2c(=O)c3ccc(N4CCCN(C)CC4)nc3n3c2sc2ccccc23)cn1	Y
CCc1c2c(nc3ccc(O)cc13)-c1cc3c(c(=O)n1C2)COC(=O)[C@]3(O)CC + Cc1cnc(CNC(=O)c2c(=O)c3ccc(N4CCCN(C)CC4)nc3n3c2sc2ccccc23)cn1	Y

Field: next compound
Just wondering, is viability, T/C of Cc1[nH]c2ccccc2c1CCNCc1ccc(/C=C/C(=O)NO)cc1 + Cc1[nH]c2ccc(F)cc2c1-c1nc2c3cccnc3c3ncccc3c2[nH]1 below 2%?
N
